system: Mycobacterium tuberculosis variant bovis; assay: Antitubercular activity against dormant stage of Mycobacterium bovis BCG ATCC 35743 assessed as growth inhibition at 30 ug/ml after 12 days by nitrate reductase assay relative to control; assay type: functional; conditions: BCG str. ATCC 35743, 288 h
# reported inhibition at 30 µg/mL; entries follow
propertyName: inhibition at 30 µg/mL (%)

INSERT INTO measurements (compound, measurementunits, valuemeasured) VALUES
  ('Cc1ccc(O)c(C2=NNC(c3cn(-c4ccc(F)cc4)nc3-c3sc(C)nc3C)C2)c1 (centres undefined)', '%', 97.5),
  ('Cc1nc(C)c(-c2nn(-c3ccc(F)cc3)cc2/C=C/C(=O)c2cc(Cl)cc(Cl)c2O)s1', '%', 29.8),
  ('Cc1nc(C)c(-c2nn(-c3ccc(F)cc3)cc2/C=C/C(=O)c2c(O)cc(C)c(Cl)c2C)s1', '%', 9.91),
  ('Cc1nc(C)c(-c2nn(-c3ccc(F)cc3)cc2/C=C/C(=O)c2cc(Br)ccc2O)s1', '%', 19.2),
  ('Cc1nc(C)c(-c2nn(-c3ccc(F)cc3)cc2-c2cc(=O)c3cc(Cl)c(C)cc3o2)s1', '%', 98.2),
  ('Cc1nc(C)c(-c2nn(-c3ccc(F)cc3)cc2C2CC(c3cc(Cl)c(C)cc3O)=NN2)s1 (centres undefined)', '%', 98.5),
  ('Cc1ccc(O)c(C(=O)/C=C/c2cn(-c3ccc(F)cc3)nc2-c2sc(C)nc2C)c1', '%', 96.9),
  ('Cc1nc(C)c(-c2nn(-c3ccc(F)cc3)cc2C2CC(c3cc(Cl)ccc3O)=NN2)s1 (centres undefined)', '%', 99.7),
  ('Cc1nc(C)c(-c2nn(-c3ccc(F)cc3)cc2/C=C/C(=O)c2cc(Cl)c(C)cc2O)s1', '%', 97.2);
